Here the recorded TD50 at 0.5 h is given for each entry.
# protocol summary: Neurotoxicity in ip dosed albino CF-1 mouse after 30 mins by rotorod test
# Format: toxicity, organism-based
# measurement setup: in vivo
Write down the numeric answer in mg/kg and omit the unit.

Solved entries (count: 3):
- molecule: "CC(=O)NC(C(=O)NCc1ccccc1)c1cnccn1 (racemic)"
  readout unit: "mg/kg"
  test value: 58
- molecule: "CC(=O)NC(C(=O)NCc1ccccc1)c1ccco1 (racemic)"
  readout unit: "mg/kg"
  test value: 40
- molecule: "CC(=O)NC(C(=O)NCc1ccccc1)c1ccc(C)o1 (racemic)"
  readout unit: "mg/kg"
  test value: 75

Next item in the queue.
In: Tell me measured TD50 at 0.5 h for CC(=O)NC(C(=O)NCc1ccccc1)c1nccs1 (racemic) please.
Out: 69

* * *

Here the recorded TD50 at 0.5 h is given for each entry.
# protocol summary: Neurotoxicity in ip dosed NMRI mouse after 30 mins by rotorod test
# Type: toxicity, organism-based
# measurement setup: in vivo
Write down the numeric answer in mg/kg and omit the unit.

- molecule: "NC(C(=O)NCc1ccccc1)c1ccccc1 (racemic)"
  readout unit: "mg/kg"
  TD50 at 0.5 h: 51

In: Tell me measured TD50 at 0.5 h for NC(C(=O)NCc1ccccc1)c1ccc2ccccc2c1 (racemic) please.
Out: 110

* * *

# protocol summary: Ratio of drug level in brain to plasma in mouse
# Format: ADME, organism-based
# measurement setup: brain and plasma, read-out: BPR
readout type: Kp
When you answer, write just the number.

In: Tell me measured Kp for NC(C(=O)NCc1ccccc1)c1ccccn1 (racemic) please.
Out: 2.7

* * *

# Test system: Mus musculus
# protocol summary: Antinociceptive activity in ip dosed NMRI mouse neuropathic pain model assessed as protection against formalin-induced nociceptive behaviour after 30 mins
# Format: functional
# measurement setup: 0.5 h
readout type: ED50 (mg/kg)
Write down the numeric answer in mg/kg and omit the unit.

Solved entries (count: 3):
- molecule: "NC(C(=O)NCc1ccccc1)c1nccc2ccccc12 (racemic)"
  system name: "Mus musculus"
  ED50, mg/kg: 29
- molecule: "COC[C@@H](NC(C)=O)C(=O)NCc1ccccc1 [LACOSAMIDE]"
  system name: "Mus musculus"
  ED50, mg/kg: 15
- molecule: "NC(C(=O)NCc1ccccc1)c1cccs1 (racemic)"
  system name: "Mus musculus"
  ED50, mg/kg: 48

Next item in the queue.
In: Tell me measured ED50 for NC(C(=O)NCc1ccccc1)c1ccccn1 (racemic) please.
Out: 33

* * *

Here the recorded MTD at 0.5 h is given for each entry.
# protocol summary: Neurotoxicity in ip dosed NMRI mouse after 30 mins by rotorod test
# Type: toxicity, organism-based
# measurement setup: in vivo
Write down the numeric answer in mg/kg and omit the unit.

- compound: "NC(C(=O)NCc1ccccc1)c1cccs1 (racemic)"
  MTD at 0.5 h / mg/kg: 51
- compound: "NC(C(=O)NCc1ccccc1)c1nccs1 (racemic)"
  MTD at 0.5 h / mg/kg: 140

Next item in the queue.
In: Tell me measured MTD at 0.5 h for NC(C(=O)NCc1ccccc1)c1ccccn1 (racemic) please.
Out: 180

* * *

# Test system: Mus musculus
# protocol summary: Anticonvulsant activity in ip dosed NMRI mouse assessed as protection against 6 Hz psychomotor seizure after 30 mins
# Format: functional
# measurement setup: 0.5 h
readout type: ED50

Solved entries (count: 2):
- molecule: "NC(C(=O)NCc1ccccc1)c1cc2ccccc2s1 (racemic)"
  test value: "> 170 mg/kg"
- molecule: "NC(C(=O)NCc1ccccc1)c1ccc2ccccc2c1 (racemic)"
  test value: "> 110 mg/kg"

In: Tell me measured ED50 for Cc1ccc(C(N)C(=O)NCc2ccccc2)o1 (racemic) please.
Out: > 140 mg/kg

In: Tell me measured ED50 for NC(C(=O)NCc1ccccc1)c1ccccc1 (racemic) please.
Out: > 43 mg/kg

In: Tell me measured ED50 for NC(C(=O)NCc1ccccc1)c1cccs1 (racemic) please.
Out: > 91 mg/kg
